Test system: primary canine DLBCL cells
Assay: MTS cell viability assay, primary canine DLBCL samples
Format: cell-based
Conditions: primary sample #2, 72 hours, read-out: IC50, DLBCL#2
reported_metric: pIC50
Please keep in mind that pIC50 is minus log10 of the molar concentration; only the number is needed.

Input line: # query: pIC50 of entry `COc1cc(-c2ncn(/C=C\C(=O)OC(C)C)n2)cc(C(F)(F)F)c1`
Output line: 8.05

###

Test: Single oral dose pharmacokinetics in healthy dogs
Format: in vivo
Conditions: male, beagle, dog, plasma; 1.5 mg/kg single oral dose, fed, 6 dogs
reported_metric: AUC

Input line: Could you tell me which AUC is on file for O=C(/C=C\n1cnc(-c2cc(C(F)(F)F)cc(C(F)(F)F)c2)n1)NNc1ccccn1 [KPT-335] ?
Output line: 1800 ng·h/mL

###

Test: Tolerability in normal laboratory dogs (data not shown)
Details: dog, in vivo
reported_metric: MTD (mg/kg)
Give a bare numeral; the unit mg/kg is implied.

Input line: Consider the compound shown here: O=C(/C=C\n1cnc(-c2cc(C(F)(F)F)cc(C(F)(F)F)c2)n1)NNc1ccccn1 [KPT-335] What is its recorded MTD?
Output line: 2

###

Test system: OCI-Ly10 DLBCL cells
Test: MTS cell viability assay, OCI-Ly10
Assay type: cell-based, human
Details: 72 hours, read-out: IC50 (± S.D.), OCI-Ly10
Procedure: Cryopreserved tumor cells obtained from sterile lymph node biopsy samples from dogs with diffuse large B cell lymphoma (DLBCL) were cultured with 100 ng/mL of megaCD40L (Enzo Life Science, Plymouth Meeting, PA) as previously described, [27]. […] Cell viability for lymphoid lines was determined by the MTS (3-(4, 5-dimethylthiazol-2-yl)-5-(3-carboxymethoxyphenyl)-2-(4-sulfophenyl)-2H-tetrazolium) assay using CellTiter 96® AQueous One Solution Cell Proliferation Assay Kit (Promega, Madison, WI). […]
reported_metric: IC50 (nM)
API: value field is a number in nM; no unit string.

Input line: Recorded IC50 for `COc1cc(-c2ncn(/C=C\C(=O)OC(C)C)n2)cc(C(F)(F)F)c1` with OCI-Ly10 DLBCL cells, please?
Output line: 246

###

Assay: Single oral dose pharmacokinetics in healthy dogs
Type: in vivo
Conditions: male, beagle, dog, plasma, po, 1.5 mg/kg, 1.5 mg/kg single oral dose, capsule, fed, 6 dogs
reported_metric: Tmax

Input line: Bench note: what Tmax did `O=C(/C=C\n1cnc(-c2cc(C(F)(F)F)cc(C(F)(F)F)c2)n1)NNc1ccccn1` show?
Output line: ~4 h

###

Experiment: Single oral dose pharmacokinetics in healthy dogs
Format: in vivo
Details: male, beagle, dog, plasma, po, 1.5 mg/kg, 1.5 mg/kg single oral dose, capsule, fed, 6 dogs
reported_metric: Cmax

Input line: Please report the recorded Cmax for `O=C(/C=C\n1cnc(-c2cc(C(F)(F)F)cc(C(F)(F)F)c2)n1)NNc1ccccn1` .
Output line: ~250 ng/mL

###

System: Jurkat cells
Experiment: MTS cell viability assay, Jurkat
Assay type: cell-based, human
Conditions: Homo sapiens, Jurkat, 72 hours, read-out: IC50 (± S.D.), Jurkat
reported_metric: IC50
Please don't drop the unit; write it after the number.

Input line: Reported IC50 for `O=C(/C=C\n1cnc(-c2cc(C(F)(F)F)cc(C(F)(F)F)c2)n1)NNc1ccccn1` : what is it?
Output line: 0.3 nM
